Origin of values: patent US20200157212A1

# study-system: T1, Human ROBO2 overexpressed on HEK293 cells (human, UniProt Q9HCK4 22-1378)
# T1 construct: also called ROBO2 cells; native ROBO2
# T1 sequence: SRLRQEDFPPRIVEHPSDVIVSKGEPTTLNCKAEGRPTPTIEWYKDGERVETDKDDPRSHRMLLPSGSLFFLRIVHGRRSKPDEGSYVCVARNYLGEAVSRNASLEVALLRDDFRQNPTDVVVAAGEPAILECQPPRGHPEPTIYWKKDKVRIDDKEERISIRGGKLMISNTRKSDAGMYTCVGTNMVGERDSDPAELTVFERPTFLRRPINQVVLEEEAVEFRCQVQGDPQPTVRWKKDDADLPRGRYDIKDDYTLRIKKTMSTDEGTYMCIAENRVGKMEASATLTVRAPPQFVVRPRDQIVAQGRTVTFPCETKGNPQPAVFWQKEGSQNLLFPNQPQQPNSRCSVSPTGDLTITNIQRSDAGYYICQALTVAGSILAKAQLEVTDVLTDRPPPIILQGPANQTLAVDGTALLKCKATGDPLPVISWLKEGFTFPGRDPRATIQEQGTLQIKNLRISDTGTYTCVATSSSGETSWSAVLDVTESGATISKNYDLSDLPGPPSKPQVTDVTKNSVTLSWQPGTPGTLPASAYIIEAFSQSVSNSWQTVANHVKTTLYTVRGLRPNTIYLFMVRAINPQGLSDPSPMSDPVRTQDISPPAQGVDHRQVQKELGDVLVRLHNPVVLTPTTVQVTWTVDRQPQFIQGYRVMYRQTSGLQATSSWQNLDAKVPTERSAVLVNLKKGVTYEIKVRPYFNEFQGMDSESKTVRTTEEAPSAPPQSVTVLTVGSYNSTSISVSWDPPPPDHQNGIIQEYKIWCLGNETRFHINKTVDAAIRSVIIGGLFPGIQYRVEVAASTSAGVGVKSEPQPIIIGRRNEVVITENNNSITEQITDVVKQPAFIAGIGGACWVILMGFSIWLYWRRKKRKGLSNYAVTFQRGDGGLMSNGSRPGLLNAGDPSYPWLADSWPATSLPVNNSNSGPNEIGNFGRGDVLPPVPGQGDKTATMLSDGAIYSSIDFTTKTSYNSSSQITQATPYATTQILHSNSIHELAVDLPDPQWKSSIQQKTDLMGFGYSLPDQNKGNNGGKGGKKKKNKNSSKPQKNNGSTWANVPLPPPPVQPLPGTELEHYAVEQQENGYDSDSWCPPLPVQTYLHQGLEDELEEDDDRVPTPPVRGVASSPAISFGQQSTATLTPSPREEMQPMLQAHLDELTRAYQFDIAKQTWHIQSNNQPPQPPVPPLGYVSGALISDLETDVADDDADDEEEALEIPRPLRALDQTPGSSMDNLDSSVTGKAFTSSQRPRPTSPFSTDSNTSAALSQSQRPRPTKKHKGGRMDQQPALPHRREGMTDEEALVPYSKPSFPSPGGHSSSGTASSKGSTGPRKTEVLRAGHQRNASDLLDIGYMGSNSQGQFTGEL
# assay-procedure: flow cytometry, Geo MFI ROBO2/ROBO1 HEK293 cells, 2.5 µg/ml
Catalogue of Fold Selectivity for ROBO2/ROBO1 values
The reply should contain only the number, in fold.

See these solved cases before continuing.
# binder, endpoint-value
data = [
    ("CTIR2-15 (antibody, human IgG1, kappa, V domains shown, CDR-shuffled IgG) VH: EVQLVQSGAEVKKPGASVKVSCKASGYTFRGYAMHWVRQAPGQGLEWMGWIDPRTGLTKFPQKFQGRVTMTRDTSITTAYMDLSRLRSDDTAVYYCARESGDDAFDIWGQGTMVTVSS VL: DIVMTQSPSSLSASVGDRVTITCRASQKISSYLNWYQQKPGKAPKLLIYAASSLQYGVPSRFSGSGSGTDFTLTISSLQPEDFATYYCQQSVGLSFGGGTKVEIKR", 12.1),
    ("Abcs5 (antibody, human IgG1, kappa, V domains shown, chain-shuffled IgG) VH: EVQLVQSGAEVKKPGASVKVSCKASGYTFTGYYMHWVRQAPGQGLEWMGWINPKNGDTEFPQKFQGRVTMTRDTSITTAYMDLSRLRSDDTAVYYCARESGDDAFDIWGQGTMVTVSS VL: DIVMTQSPSSLSASVGDRVTITCRASQSISSYLNWYQQKPGKAPKLLIYAASSLQSGVPSRFSGSGSGTDFTLTISSLQPEDFATYYCQQSLELGFGGGTKVEIKR", 5.1),
    ("Abcs12 (antibody, human IgG1, kappa, V domains shown, chain-shuffled IgG; also called Abes12) VH: EVQLVQSGAEVKKPGASVKVSCKASGYTFTGYYMHWVRQAPGQGLEWMGWINPRNGITSFPQKFQGRVTMTRDTSITTAYMDLSRLRSDDTAVYYCARESGDDAFDIWGQGTMVTVSS VL: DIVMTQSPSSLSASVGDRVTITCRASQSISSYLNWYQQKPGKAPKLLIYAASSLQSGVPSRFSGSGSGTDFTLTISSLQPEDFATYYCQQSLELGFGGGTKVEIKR", 15.7),
    ("Abcs25 (antibody, human IgG1, kappa, V domains shown, chain-shuffled IgG) VH: EVQLVQSGAEVKKPGASVKVSCKASGYTFTGYYMHWVRQAPGQGLEWMGWINPKDGDTEFPQKFQGRVTMTRDTSITTAYMDLSRLRSDDTAVYYCARESGDDAFDIWGQGTMVTVSS VL: DIVMTQSPSSLSASVGDRVTITCRASQSISSYLNWYQQKPGKAPKLLIYAASSLQSGVPSRFSGSGSGTDFTLTISSLQPEDFATYYCQQSVGLSFGGGTKVEIKR", 3.3),
    ("CTIR2-13 (antibody, human IgG1, kappa, V domains shown, CDR-shuffled IgG) VH: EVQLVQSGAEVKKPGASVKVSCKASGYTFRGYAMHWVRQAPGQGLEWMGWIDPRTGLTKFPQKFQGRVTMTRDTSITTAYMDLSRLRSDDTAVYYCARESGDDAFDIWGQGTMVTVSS VL: DIVMTQSPSSLSASVGDRVTITCRASQKISSYLNWYQQKPGKAPKLLIYAASSLQYGVPSRFSGSGSGTDFTLTISSLQPEDFATYYCQQSYSTSFGGGTKVEIKR", 2.3),
]

# ---- query binder ----
Abcs55 (antibody, human IgG1, kappa, V domains shown, chain-shuffled IgG) VH: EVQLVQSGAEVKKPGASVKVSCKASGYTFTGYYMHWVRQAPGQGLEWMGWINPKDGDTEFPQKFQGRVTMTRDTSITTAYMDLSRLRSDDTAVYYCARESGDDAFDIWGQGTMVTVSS VL: DIVMTQSPSSLSASVGDRVTITCRASQSISSYLNWYQQKPGKAPKLLIYAASSLQYGVPSRFSGSGSGTDFTLTISSLQPEDFATYYCQQSYSTSFGGGTKVEIKR yielded Fold Selectivity for ROBO2/ROBO1 of 1.5
